// reported GI50 for each item listed
system: DLD-1; assay: NCI tumour cell line growth inhibition, 48 h
Activity calls are given as the source filed them. Cut-off read from the data, not from the text of the source: active = GI50 up to about 1.1 µM and inactive = higher.
ASSAY_METRIC: GI50

COCCNC(=O)C1C(=O)N(CCOC)C(=O)/C1=N/N (stereo not drawn) : > 100 µM (inactive)
CC1=NN(C(=O)c2ccc(Cl)cc2)C(=O)/C1=C/c1ccc(Cl)cc1 : > 100 µM (inactive)
S=c1[nH]c2ccc(Br)cc2c(=S)n1-c1ccccc1 : 28.7 µM (inactive)

###

system: T47D; experiment: NCI tumour cell line growth inhibition, 48 h
Active and inactive are the calls of the source. Cut-off read from the data, not from the text of the source: active = GI50 up to about 1.1 µM and inactive = higher.
Labels: active, inactive

COCC([C@@H](O)C(O)C(=O)NCC[C@@H](C)c1nc(/C=C/CC2OC3(C[C@H](O)C2C)OC(C(C[C@H](O)C(C)[C@H](O)C(C)/C=C(C)/C(C)=C/C=C/C(C)=C/C#N)OC)[C@@H](OP(=O)(O)O)C3(C)C)co1)N(C)C (stereo partly specified) : active
O=C(c1ccccc1)c1ccc2[nH]c(-c3c(Cl)c(Cl)c(Cl)c(Cl)c3C(=O)N/N=C/c3cccc(Oc4ccccc4)c3)nc2c1 : inactive
O=C(O)Cn1ccc(=O)c2ccc([N+](=O)[O-])cc21 : inactive
O=C(C1=CCC2(CC1)OCCO2)N(Cc1ccccc1)c1ccccc1I : inactive
CC(=O)/C=C1\Nc2sc(C)c(C)c2C(=O)S1 : inactive
Nc1cc2[nH]c(=O)c3cc(Cl)ccc3c2cc1Cl : inactive
COc1ccc2oc(=N)c(C(N)=S)cc2c1 : inactive
Clc1cc2c(cc1Cl)CC(NCCN1CCCC1)CC2 (stereo unspecified) : inactive
CCc1nc2ccc(NCCN(C)C)c3c(=O)c4ccccc4n1c23 : inactive
CN(N)c1nc(N)c(C#N)c(C#N)c1C#N : inactive
O=C1C=CC(=O)c2c1ccc1c3ccccc3n(Cc3ccccc3)c21 : inactive
COc1c(-c2nc3ccc(N4CCN(C)CC4)nc3[nH]2)cc(OC)c2[nH]c(CO)nc12 : inactive
NS(=O)(=O)c1nnc(/N=C(/CCC(=O)O)C(=O)O)s1 : inactive
COC(=O)N1C2C(C[C@@]1(C)C(=O)OC)c1ccccc1N2S(=O)(=O)c1ccccc1 (stereo partly specified) : inactive
CC1=CC(=O)N(n2c(Cc3ccc(Cl)cc3)n[nH]c2=O)C1=O : inactive
NC(=O)CC(N)c1nnn[nH]1 (stereo unspecified) : inactive
Clc1ccc(C2=NNC(c3cccc(Cl)c3)C2)cc1 (stereo unspecified) : inactive
COc1cc2nc(-c3cccs3)nc(Cl)c2cc1OC : inactive
CCO/N=C\c1ccc2oc(-c3ccccc3)cc(=O)c2c1 : inactive
Clc1ccc(C(Cc2cccc(Cl)c2)c2c(Cl)nc(N3CCNCC3)nc2Cl)cc1 (stereo unspecified) : inactive
CC(C)=C1C2CC3(C)CCC2(C)CCC13.CC1=CCC2C3(C)CCC2(C(C)C)C1C3 (stereo unspecified) : inactive

###

test system: DLD-1; test: NCI tumour cell line growth inhibition, 48 h
Activity calls are given as the source filed them. Cut-off read from the data, not from the text of the source: active = GI50 up to about 1.1 µM and inactive = higher.
ASSAY_METRIC: GI50

NC1=NC(Cn2nc(-c3ccccc3)c3ccccc3c2=O)=NNC(=O)N1 : > 100 µM (inactive)
CSc1ccc(NC(=O)C2c3[nH]c4ccccc4c3C3CCC(C(C)(C)C)CC3C2C(=O)O)cc1 (stereo unspecified) : 12.6 µM (inactive)
COc1cc(C(=O)O)cc2c1[nH]c1ccccc12 [MUKOEIC ACID] : > 25 µM (inactive)
Clc1ccccc1C1=NN(c2ccccc2)C2c3ccccc3OCC12 (stereo unspecified) : > 100 µM (inactive)
O=C1C2=C(CCCC2)Nc2cccc3ncn1c23 : > 100 µM (inactive)
CCN(CC)CCNC(=O)c1cccc2nc3ccccc3nc12 : > 26.7 µM (inactive)
CC(=O)C1=CSC2[C@H](NC(=O)Cc3ccccc3)C(=O)N2C1C(=O)OC(c1ccccc1)c1ccccc1 (stereo partly specified) : > 100 µM (inactive)
BrC12c3ccccc3Sc3ccccc3C1(Br)c1ccccc12 (stereo unspecified) : 33 µM (inactive)
CNc1ccccc1-c1nc2ccccc2c(=O)o1 : > 100 µM (inactive)
CCOC(=O)C(/C(=N/NC(=O)OC)C(=O)Nc1ccc(C(C)=O)cc1)c1cnc2ccccc2n1 (stereo unspecified) : > 100 µM (inactive)
CS/C(C)=N/OC(=O)NCCCCNc1ccc(N=[N+]=[N-])cc1 : > 100 µM (inactive)

###

system: K562; assay: NCI tumour cell line growth inhibition, 48 h
Active and inactive are the calls of the source. Rule as the data show it: active = GI50 up to about 1.1 µM and inactive = higher.
Outcome codes: 1.0 for active, 0.0 for inactive

CC(C)(C)OC(=O)N(CCCCNC(=O)C(F)(F)F)CCCNC(=O)C(F)(F)F : 0.0
Cc1cc(Br)c(O)c(-c2cscn2)c1 : 0.0
CC1OC(=O)N(CCCC=C2SCCCS2)C1=O (stereo not given) : 0.0
CCOC(=O)Cn1c(=O)n(C)c(=O)c2c1ncn2Cc1ccccc1 : 0.0
COc1cc2oc3c(c(=O)c2c(O)c1/C=C/C(C)C)CCC(C)(C)Oc1cc(O)ccc1-3 : 0.0
c1ccc2cc(CNCCCCNCCCNCc3ccc4ccccc4c3)ccc2c1 : 1.0
COC(=O)[C@H](Cc1c[nH]c2ccccc12)NP(=O)(O)OCC1C=CC(n2cc(C)c(=O)[nH]c2=O)O1 (stereo not given in full) : 0.0
CC1(C)O[C@@H](CBr)C[C@H](C[C@H]2C[C@@H](O)C[C@@H](CCOCc3ccccc3)O2)O1 : 0.0
Cc1ccc(C(=C2Sc3ccccc3S2)C(=C2Sc3ccccc3S2)c2ccc(C)s2)s1 : 0.0
Cc1ccc(N2C[N+](c3ccccc3)=NC(c3ccccc3)=N2)cc1 : 0.0

###

GI50 values for the compounds below.
test system: SF-295; assay: NCI tumour cell line growth inhibition, 48 h
The source made the active and inactive calls. Cut-off read from the data, not from the text of the source: active = GI50 up to about 1.1 µM and inactive = higher.
ASSAY_METRIC: GI50

COc1ccc2c(c1)CC[C@@H]1[C@@H]2CC[C@]2(C)C(=O)/C(=C/c3ccc(N(C)C)cc3)C[C@@H]12 : 40.2 µM (inactive)
CCN(CC)CCNc1n[n+]([O-])c2ccccc2[n+]1[O-] : 7.93 µM (inactive)
CCCCCCc1nn2c(-c3ccncc3)nnc2s1 : > 10 µM (inactive)
O=C(c1ccco1)N(Cc1ccco1)C(=S)Nc1ccccc1 : 32.2 µM (inactive)
Cc1cn(Cc2cccc(C3=NCCCN3)c2)c(=O)n(Cc2cccc(C3=NCCCN3)c2)c1=O : > 100 µM (inactive)
COP1(=O)CC2C(Cl)(Cl)C2(C)C1 (stereo unspecified) : > 100 µM (inactive)
Cc1cc2c(cc1Cl)SC(NS(=O)(=O)c1ccc(Cl)cc1)=NS2(=O)=O : 23 µM (inactive)
C=C1c2nc3ccccc3n2C=C(c2ccccc2)N1c1ccc(Cl)cc1 : 12.6 µM (inactive)
COC(=O)C(=O)C(CC(=O)Nc1ccc(C)cc1)C(=O)OC (stereo unspecified) : > 100 µM (inactive)
O=C(Nc1ccccc1Br)c1cccc([N+](=O)[O-])c1O : 3.87 µM (inactive)
CC1OC(=O)N(CCCC=C2SCCCS2)C1=O (stereo unspecified) : > 100 µM (inactive)

###

tested on: DMS-273; assay: NCI tumour cell line growth inhibition, 48 h
The source made the active and inactive calls. Rule as the data show it: active = GI50 up to about 1.1 µM and inactive = higher.
Classes used: Yes = active, No = inactive

O=c1[nH]c(=O)n(C2OC(COP(=O)(O)OP(=O)(O)O)C(O)C2O)cc1F (stereo not drawn) : Yes
[N-]=[N+]=NC1CC(n2cc(COCC(F)(F)F)c(=O)[nH]c2=O)OC1CO (stereo not drawn) : No
CCN(CC)CCNC(=O)c1cccc2nc3ccccc3nc12 : No
CC(C)C1COC(c2cccc(C3=N[C@@H](C(C)C)CO3)n2)=N1 (stereo partly drawn) : No
COCCNC(=O)C1C(=O)N(CCOC)C(=O)/C1=N/N (stereo not drawn) : No
CNc1ccccc1-c1nc2ccccc2c(=O)o1 : No
O=C(Nc1ccccc1Br)c1cccc([N+](=O)[O-])c1O : No
COCC12CC(CC1=O)C1C2ON2c3ccccc3C(=O)C12c1ccccc1 (stereo not drawn) : No
O=c1c2cccc3cccc(c4n1CCCN=4)c32 : No
c1csc(C[N+]23CN4CN(CN(C4)C2)C3)c1 : No
S=c1[nH]c2ccc(Br)cc2c(=S)n1-c1ccccc1 : No
CSCC(CO)NC(=O)/C=C/c1c(C)[nH]c(=O)[nH]c1=O (stereo not drawn) : No
O=c1[nH]c(-c2ccccc2)nc2cc([N+](=O)[O-])c(/C(Cl)=C/c3ccccc3)cc12 : No
Sc1nnc(COc2ccc(Cl)cc2)[nH]1 : No
COC(=O)c1ccc(/C=C2\N=C(C)OC2=O)cc1 : No
CC(=O)OC1CCCn2c1nc1c2C(=O)C(C)=C(N2CC2)C1=O (stereo not drawn) : Yes
COc1ccc2[nH]c3c(O)nncc3c2c1 : No
CN(C)CCCNC(=O)N/N=C/c1cccc([N+](=O)[O-])c1 : No
CN(C)CC1CCC(CN(C)C)C(=O)C1=O (stereo not drawn) : No
CCOc1ccc(NC(=O)C(=O)NO)cc1 : No
CC(=O)C1=CSC2[C@H](NC(=O)Cc3ccccc3)C(=O)N2C1C(=O)OC(c1ccccc1)c1ccccc1 (stereo partly drawn) : No
N[C@@H](CSCSC[C@H](N)C(=O)O)C(=O)O : No
Cc1c(C(Cc2ccccc2N(C)C(=O)/C=C\C(=O)O)c2c[nH]c3ccccc23)c2ccccc2n1C (stereo not drawn) : No
